# maps each entry to its Fold IC50 increase relative to wild-type
SYSTEM_NAME: HIV-1 JR-CSF Env R327A (HIV-1 isolate JR-CSF) (UniProt P20871)
METHOD_SUMMARY: cell-based or functional assay

BINDER	DISPLAY_UNIT	Fold IC50 increase relative to wild-type
PGT-127 (antibody, V domains shown) VH: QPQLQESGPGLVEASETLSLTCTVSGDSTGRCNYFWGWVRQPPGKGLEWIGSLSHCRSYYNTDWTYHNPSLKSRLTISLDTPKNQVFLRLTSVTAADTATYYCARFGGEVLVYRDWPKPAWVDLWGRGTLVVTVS VL: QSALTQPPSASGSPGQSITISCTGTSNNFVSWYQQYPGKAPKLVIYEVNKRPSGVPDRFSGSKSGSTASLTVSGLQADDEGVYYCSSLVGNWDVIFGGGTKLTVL	fold	1.8
PGT-131 (antibody, V domains shown) VH: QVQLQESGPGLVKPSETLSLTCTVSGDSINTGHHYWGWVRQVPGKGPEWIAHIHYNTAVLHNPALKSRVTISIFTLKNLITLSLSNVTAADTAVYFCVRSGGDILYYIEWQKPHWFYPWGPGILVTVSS VL: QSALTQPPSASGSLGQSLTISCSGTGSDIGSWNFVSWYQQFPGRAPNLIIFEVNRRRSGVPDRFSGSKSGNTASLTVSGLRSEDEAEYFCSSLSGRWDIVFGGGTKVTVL	fold	19
PGT-126 (antibody, V domains shown) VH: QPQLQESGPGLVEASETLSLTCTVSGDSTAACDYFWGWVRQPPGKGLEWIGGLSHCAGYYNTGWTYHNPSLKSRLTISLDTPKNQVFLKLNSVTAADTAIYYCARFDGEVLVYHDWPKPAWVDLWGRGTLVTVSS VL: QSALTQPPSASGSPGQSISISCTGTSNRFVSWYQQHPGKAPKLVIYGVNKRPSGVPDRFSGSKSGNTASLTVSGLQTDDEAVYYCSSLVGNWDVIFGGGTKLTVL	fold	2.2
PGT-130 (antibody, V domains shown) VH: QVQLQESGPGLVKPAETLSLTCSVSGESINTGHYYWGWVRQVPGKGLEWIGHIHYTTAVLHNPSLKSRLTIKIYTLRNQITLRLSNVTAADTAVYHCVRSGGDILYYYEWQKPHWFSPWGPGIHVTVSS VL: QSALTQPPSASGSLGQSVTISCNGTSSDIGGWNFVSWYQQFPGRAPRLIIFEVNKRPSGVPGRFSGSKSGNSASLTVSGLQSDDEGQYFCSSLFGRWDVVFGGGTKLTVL	fold	2.4
